I'd appreciate it if you could supply inhibition at 100 µM values for the items below.
# tested.on: c-Myc-Max heterodimers (Homo sapiens)
# Construct: c-Myc bHLH-ZIP domain (residues 353-437); His6-TEV protease substrate tag; made in house; host or cells: bacteria (pET151 vector for Myc)
# Sequence (P01106 368-452, one chain of several): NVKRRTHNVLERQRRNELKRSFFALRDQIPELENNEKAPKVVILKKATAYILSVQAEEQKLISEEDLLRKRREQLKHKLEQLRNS
# experimental.details: Electrophoretic mobility shift assay (EMSA) of c-Myc-Max dimerization and DNA binding
# assay.setup: Table 11; 100 uM, EMSA; read-out: % Inhibition of c-Myc-Max Dimerization
Give bare numbers, in %.

molecule="NC(=O)c1cc(Nc2ccccc2-c2ccccc2)ccc1[N+](=O)[O-] [SF-3-104A]" outcome_measure="inhibition at 100 µM" assay_result=0

Return reported inhibition at 100 µM values for all items listed beneath this line.
1. O=[N+]([O-])c1ccc(Nc2ccccc2-c2ccccc2)nc1 [SF-3-081]
2. N#Cc1cc(Nc2ccccc2-c2ccccc2)ccc1[N+](=O)[O-] [SF-3-080]
3. COC(=O)c1cc(Nc2ccccc2-c2ccccc2)ccc1[N+](=O)[O-] [SF-3-107]
4. O=C(O)c1ccc(Nc2ccccc2-c2ccccc2)cc1 [SF-3-093B]
5. Nc1ccc(Nc2ccccc2-c2ccccc2)cc1 [SF-3-098]
6. N#Cc1cc([N+](=O)[O-])ccc1Nc1ccccc1-c1ccccc1 [SF-3-079]
7. N#Cc1ccc(Nc2ccccc2-c2ccccc2)c(Cl)c1 [SF-3-083]

Data returned:
0
0
0
4
0
0
9

Return reported inhibition at 100 µM values for all items listed beneath this line.
1. O=[N+]([O-])c1ccc(Nc2ccccc2-c2ccccc2)cc1 [SF-3-068]
2. O=C(O)c1cc(Nc2ccccc2-c2ccccc2)ccc1[N+](=O)[O-] [SF-3-070]
3. COC(=O)c1cc([N+](=O)[O-])ccc1Nc1ccccc1-c1ccccc1 [SF-3-106]
4. COC(=O)c1ccc(Nc2ccccc2-c2ccccc2)cc1 [SF-3-105]
5. O=[N+]([O-])c1ccc(Nc2ccccc2-c2ccccc2)cc1O [SF-3-101]

Data returned:
1. 0
2. 5
3. 0
4. 0
5. 0
